- experimental details: Example 20 crossover pharmacokinetics of two oral tablet formulations in dogs under fed conditions
- Assay type: in vivo, beagle dogs
- protocol conditions: male, beagle, dog, plasma, po, 200 mg, Example 20, fed dogs (high fat diet), 200 mg tablet PO, individual subjects
property measured: tmax
Please make sure the unit comes right after the number.

Given the entry Cc1ccc(S(=O)(=O)O)cc1.Cn1cc(-c2cn(-c3ccc(OC(F)(F)F)cc3)c(=O)c3ncn(C)c23)cn1 [mono-tosylate] , report its measured tmax.
4 h

###

- experimental details: Example 19 crossover pharmacokinetics of four oral tablet formulations in fasted dogs
- Assay type: in vivo, beagle dogs
- protocol conditions: male, beagle, dog, plasma, po, 200 mg/tablet/dog, Example 19, fasted dogs, 200 mg tablet PO, mean; LOQ 1.02 to 5.1 ng/mL; read-out: Plasma concentration of Compound I at 1 hour
property measured: concentration at 1 h (ng/mL)
State just the number; it will be interpreted in ng/mL.

Given the entry Cc1ccc(S(=O)(=O)O)cc1.Cn1cc(-c2cn(-c3ccc(OC(F)(F)F)cc3)c(=O)c3ncn(C)c23)cn1 [mono-tosylate] , report its measured concentration at 1 h.
6490
